Test system: CP262
experiment: qHTS profiling for inhibitors of Plasmodium falciparum proliferation (AID 504749); note: nearly all actives have a fitted effect of over 60% in size
run.conditions: P. falciparum in erythrocytes, SYBR Green DNA, 72 h; series mostly up to 12.8 µM
Results filed as inconclusive are left out. The source made the active and inactive calls. Calls come from the whole dose curve; as a rule, active = well fitted inhibition curve with a large enough effect; inconclusive = small, poorly fitted or top-dose-only effect; inactive = flat fitted curve, though single readings scatter.
Outcomes: 1 (yes) (active), 0 (no) (inactive)

given.smiles: CCN(CC)CC#CCOC(=O)[C@@](O)(c1ccccc1)C1CCCCC1
label: 0 (no)
--
given.smiles: CN[C@@H](CC(C)C)C(=O)N[C@@H]1C(=O)N[C@H](CC(N)=O)C(=O)N[C@@H]2C(=O)N[C@H]3C(=O)N[C@H](C(=O)N[C@H](C(=O)O)c4cc(O)cc(O)c4-c4cc3ccc4O)[C@H](O)c3ccc(c(Cl)c3)Oc3cc2cc(c3O[C@H]2O[C@@H](CO)[C@@H](O)[C@@H](O)[C@@H]2O[C@@H]2C[C@](C)(N)[C@H](O)[C@H](C)O2)Oc2ccc(cc2Cl)[C@@H]1O
label: 0 (no)
--
given.smiles: O=C(c1ccccc1)c1ccc2n1CC[C@H]2C(=O)O
label: 0 (no)
--
given.smiles: CC(=O)Nc1c(I)c(C(=O)N[C@H]2[C@@H](O)[C@H](O)[C@H](CO)O[C@@H]2O)c(I)c(N(C)C(C)=O)c1I
label: 0 (no)
--
given.smiles: CN(C)CC/C=C1\c2ccccc2CSc2ccccc21
label: 0 (no)
--
given.smiles: C[C@@H](CN(C)C)CN1c2ccccc2CCc2ccccc21
label: 0 (no)
--
given.smiles: CC(=O)O[C@@H](C)C[N+](C)(C)C
label: 0 (no)
--
given.smiles: CCN(CC)CCC[C@H](C)Nc1ccnc2cc(Cl)ccc12
label: 1 (yes)
--
given.smiles: NC(=O)c1cc[n+](CC2=C(C(=O)O)N3C(=O)[C@@H](NC(=O)[C@H](c4ccccc4)S(=O)(=O)[O-])[C@@H]3SC2)cc1
label: 0 (no)
--
given.smiles: N[C@@H](CO)C(=O)NNCc1ccc(O)c(O)c1O
label: 0 (no)
--
given.smiles: Cn1c(=O)c2c(ncn2C[C@@H](O)CO)n(C)c1=O
label: 0 (no)
--
given.smiles: COc1c(O)cc2c(c1O)[C@@H]1O[C@@H](CO)[C@@H](O)[C@@H](O)[C@@H]1OC2=O
label: 0 (no)
--
given.smiles: CC1(C)Oc2ccc(C#N)cc2[C@H](N2CCCC2=O)[C@H]1O
label: 0 (no)
--
given.smiles: O=C(O)/C=C\c1ccc(Cn2ccnc2)cc1
label: 0 (no)

---

experiment: Stat Signaling Pathway (AID 446);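 note: ME-180 cervical cancer cells given 40 pM IL-6 alongside compound; SIE-controlled beta-lactamase reporter measured as 460/530 nm FRET emission ratio; % is set by controls: 0 for no effect and ±100 for the full control effect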
run.conditions: ME-180 (cervical carcinoma) SIE beta-lactamase reporter, IL-6 stimulated, 5 h; at 7.69 µM (top of the series) unless noted
Inconclusive results are not listed.
quantity: activity, negative = inhibition (%)

given.smiles: COc1ccc(-n2c(=O)c(C)nc3cnc(N4CCOCC4)nc32)cc1
result: -6.68
//
given.smiles: COc1ccccc1-c1nc(NCc2cnc(C)cn2)c2ccccc2n1
result: -5.06
//
given.smiles: COc1ncc2nc(-c3ccc(Cl)cc3)c(=O)n(CCc3ccccc3)c2n1
result: 1.11
//
given.smiles: COc1ncc2nc(C)c(=O)n(-c3ccccc3)c2n1
result: -8.97
//
given.smiles: O=c1c(-c2cccc(Cl)c2)nc2cncnc2n1Cc1ccccc1Cl
result: -2.1
//
given.smiles: O=C(c1ccncc1)N1CCC2(CCCN(C(c3ccccc3)c3ccccc3)C2)CC1
result: 11.1
//
given.smiles: N#CCCn1c(=O)c(-c2cc(F)cc(F)c2)nc2cnc(Oc3ccccc3)nc21
result: -2.23
//
given.smiles: c1ccc(Nc2nc(-c3ccc4c(c3)OCO4)nc3ccccc23)cc1
result: -2.81
//
given.smiles: c1ccc2c(N3CCOCC3)nc(-c3ccoc3)nc2c1
result: -2.69
//
given.smiles: Cc1cnc(CNc2nc(-c3ccc(N(C)C)cc3)nc3ccccc23)cn1
result: 7.71
//
given.smiles: O=C(c1ccncc1)N1CCC2(CCCN(Cc3ccncc3)C2)CC1
result: 4.83
//
given.smiles: O=C(c1ccncc1)N1CCC2(CCCN(c3ccccc3)C2)CC1
result: -3.54
//
given.smiles: COCCn1c(=O)c(-c2ccccc2)nc2cnc(N3CCOCC3)nc21
result: -4.75
